System: DU-145
assay-text: SRB colorimetric assay of cell growth and viability, DU-145
Assay type: cell-based, human
details: 48 hours exposure, SRB
Where a SMILES comes first, the peptide text is derived from it. Bridges are numbered along the chain shown (N, C = ends). [ ]: non-standard residue; d: D form. The star is where a group is joined. d(aIle) = CC[C@H](C)[C@@H](N)C(=O)O; d(aThr) = C[C@@H](O)[C@@H](N)C(=O)O; Hexanoyl(5-Me) = CC(C)CCCC(=O)*; Orn = NCCC[C@H](N)C(=O)O; Dhb = C/C=C(\N)C(=O)O
observable: GI50 (nM)
Unit nM implied. Number only.

compound	unit-abbrev	GI50
C/C=C1\NC(=O)[C@H](Cc2ccc(I)cc2)NC(=O)[C@@H](C(C)C)NC(=O)[C@@H]([C@@H](C)CC)NC(=O)[C@H](NC(=O)[C@H](NC(=O)[C@H](CCCN)NC(=O)[C@H]2CCCN2C(=O)[C@H](NC(=O)[C@@H](NC(=O)[C@@H](NC(=O)[C@H](NC(=O)CC[C@@H](C)CC)C(C)C)[C@@H](C)O)C(C)C)C(C)C)[C@@H](C)CC)[C@@H](C)OC(=O)[C@H](C(C)C)NC1=O [Compound 72, [Phe(4-I)^3, (4S)-MeHex^14]-KF]	nM	132

For C/C=C1\NC(=O)[C@H](Cc2c[nH]c3ccccc23)NC(=O)[C@@H](C(C)C)NC(=O)[C@@H]([C@@H](C)CC)NC(=O)[C@H](NC(=O)[C@H](NC(=O)[C@H](CCCN)NC(=O)[C@H]2CCCN2C(=O)[C@H](NC(=O)[C@@H](NC(=O)[C@@H](NC(=O)[C@H](NC(=O)CCCC(C)C)C(C)C)[C@@H](C)O)C(C)C)C(C)C)[C@@H](C)CC)[C@@H](C)OC(=O)[C@H](C(C)C)NC1=O [Compound 68, [Trp^3]-KF] ({Hexanoyl(5-Me)}-[dV]TV[dV][dP][Orn][d(aIle)][d(aThr)][d(aIle)][dV]W[Dhb]V; ester 8-C) , what is its reported GI50? 470

For "C/C=C1\NC(=O)[C@H](Cc2ccccc2)NC(=O)[C@@H](C(C)C)NC(=O)[C@@H]([C@@H](C)CC)NC(=O)[C@H](NC(=O)[C@H](NC(=O)[C@H](CCCNC(=O)C(F)(F)F)NC(=O)[C@H]2CCCN2C(=O)[C@H](NC(=O)[C@@H](NC(=O)[C@@H](NC(=O)[C@H](NC(=O)CC[C@@H](C)CC)C(C)C)[C@@H](C)OC(=O)C(F)(F)F)C(C)C)C(C)C)[C@@H](C)CC)[C@@H](C)OC(=O)[C@H](C(C)C)NC1=O" , what is its reported GI50? 892

For [2H]C([2H])([2H])C([2H])(C([2H])([2H])[2H])[C@]([2H])(NC(=O)[C@@H](NC(=O)[C@H](NC(=O)CCCC(C)C)C(C)C)[C@@H](C)O)C(=O)N[C@@H](C(=O)N1CCC[C@@H]1C(=O)N[C@@H](CCCN)C(=O)N[C@@H](C(=O)N[C@H]1C(=O)N[C@H]([C@@H](C)CC)C(=O)N[C@H](C(C)C)C(=O)N[C@@H](Cc2ccccc2)C(=O)N/C(=C\C)C(=O)N[C@@H](C(C)C)C(=O)O[C@@H]1C)[C@@H](C)CC)C(C)C [Compound 100, [L-Val-d8^11]-KF] , what is its reported GI50? 544
